Target: α4β1 integrin (Homo sapiens, UniProt P05556+P13612)
Construct: endogenous in cells; host or cells: Ramos cells
Sequence (P13612 34-1032): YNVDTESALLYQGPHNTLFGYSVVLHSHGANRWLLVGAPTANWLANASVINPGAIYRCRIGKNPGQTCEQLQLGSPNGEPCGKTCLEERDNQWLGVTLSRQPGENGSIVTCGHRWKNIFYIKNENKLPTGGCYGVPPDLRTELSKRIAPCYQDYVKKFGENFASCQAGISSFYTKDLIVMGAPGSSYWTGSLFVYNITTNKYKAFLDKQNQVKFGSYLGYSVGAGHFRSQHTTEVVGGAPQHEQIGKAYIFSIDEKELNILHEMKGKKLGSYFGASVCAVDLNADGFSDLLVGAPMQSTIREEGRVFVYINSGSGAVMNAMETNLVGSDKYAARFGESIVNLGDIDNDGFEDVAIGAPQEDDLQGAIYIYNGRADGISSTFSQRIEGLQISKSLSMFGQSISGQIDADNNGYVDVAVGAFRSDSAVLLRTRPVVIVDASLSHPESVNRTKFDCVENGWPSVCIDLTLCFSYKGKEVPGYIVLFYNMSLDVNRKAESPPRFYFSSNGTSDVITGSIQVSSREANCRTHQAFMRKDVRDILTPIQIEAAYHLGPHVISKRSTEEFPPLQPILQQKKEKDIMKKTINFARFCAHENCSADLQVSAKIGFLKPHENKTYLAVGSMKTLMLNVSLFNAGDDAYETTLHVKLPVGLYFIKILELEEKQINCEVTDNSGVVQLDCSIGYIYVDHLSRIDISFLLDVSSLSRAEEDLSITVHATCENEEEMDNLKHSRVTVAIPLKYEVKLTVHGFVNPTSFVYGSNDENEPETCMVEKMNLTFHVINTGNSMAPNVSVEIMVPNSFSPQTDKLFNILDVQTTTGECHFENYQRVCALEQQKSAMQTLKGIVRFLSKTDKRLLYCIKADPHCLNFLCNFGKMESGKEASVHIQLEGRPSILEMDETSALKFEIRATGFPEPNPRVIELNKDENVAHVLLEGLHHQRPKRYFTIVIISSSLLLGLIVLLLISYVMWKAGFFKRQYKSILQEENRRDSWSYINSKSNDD
Sequence (P05556 21-798): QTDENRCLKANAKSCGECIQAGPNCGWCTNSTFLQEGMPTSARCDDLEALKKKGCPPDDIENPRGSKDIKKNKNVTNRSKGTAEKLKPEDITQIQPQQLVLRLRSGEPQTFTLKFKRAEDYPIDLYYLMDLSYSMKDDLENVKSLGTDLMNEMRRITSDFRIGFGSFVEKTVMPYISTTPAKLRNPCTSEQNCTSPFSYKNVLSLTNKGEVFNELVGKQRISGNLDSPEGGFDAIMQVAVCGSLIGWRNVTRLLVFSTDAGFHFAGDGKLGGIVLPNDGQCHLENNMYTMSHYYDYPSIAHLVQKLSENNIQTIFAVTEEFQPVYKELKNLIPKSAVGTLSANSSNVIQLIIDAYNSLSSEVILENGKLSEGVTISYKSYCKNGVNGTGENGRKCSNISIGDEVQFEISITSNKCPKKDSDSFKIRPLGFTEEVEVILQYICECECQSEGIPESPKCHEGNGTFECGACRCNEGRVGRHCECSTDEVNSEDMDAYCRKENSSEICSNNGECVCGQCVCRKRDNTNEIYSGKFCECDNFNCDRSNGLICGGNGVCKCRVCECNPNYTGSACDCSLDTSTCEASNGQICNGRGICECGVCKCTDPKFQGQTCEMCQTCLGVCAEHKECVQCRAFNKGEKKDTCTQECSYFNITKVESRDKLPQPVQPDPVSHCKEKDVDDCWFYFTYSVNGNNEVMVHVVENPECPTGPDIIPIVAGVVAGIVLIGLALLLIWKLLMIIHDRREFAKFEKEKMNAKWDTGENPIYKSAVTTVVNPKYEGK
Assay: Adhesion of calcein-labeled Ramos cells to CS1 (fibronectin) peptide conjugated ovalbumin
Format: cell-based
Settings: Table 3; Ramos cell adhesion to CS1 conjugated ovalbumin, 30 minutes at 37° C.
reported-endpoint: IC50 (nM)
Respond with the bare value in nM.

Check out these entries, answers already filled in.
mol	output-unit	IC50
COc1cc(OC)cc([C@H](CC(=O)O)NC(=O)Nc2c(O)ccn(Cc3ccccc3Cl)c2=O)c1	nM	3
Cc1ccc([C@H](CC(=O)O)NC(=O)Nc2c(C)ccn(Cc3ccccc3Br)c2=O)cc1	nM	10
Cc1ccc([C@H](CC(=O)O)NC(=O)Nc2c(Nc3cc(C)no3)ccn(Cc3ccccc3Cl)c2=O)cc1	nM	15

Field: next compound
In plain terms, Cc1ccc([C@H](CC(=O)O)NC(=O)Nc2c(NCc3cccnc3)ccn(Cc3ccccc3Cl)c2=O)cc1 has a documented IC50 of 20

====

Biological target: α4β1 integrin (Homo sapiens, UniProt P05556+P13612)
Construct: endogenous in cells; host or cells: Ramos cells
Experiment: Adhesion of calcein-labeled Ramos cells to CS1 (fibronectin) peptide conjugated ovalbumin
Format: cell-based
Settings: Table 4; Ramos cell adhesion to CS1 conjugated ovalbumin, 30 minutes at 37° C.
reported-endpoint: pIC50
Keep it numeric: pIC50 is minus log10 of the concentration in mol/L.

Some compounds with recorded pIC50:
mol	pIC50
O=C(O)C[C@H](NC(=O)Nc1ccc(=O)n(Cc2ccccc2)c1)c1ccc2c(c1)OCO2	6.30
O=C(O)C[C@H](NC(=O)Nc1cccn(Cc2cccs2)c1=O)c1ccc2c(c1)CCO2	6.85
Cc1ccc([C@H](CC(=O)O)NC(=O)Nc2cccn(Cc3ccc(F)cc3Cl)c2=O)cc1	6.46
O=C(O)C[C@H](NC(=O)Nc1cccn(Cc2cccc(Cl)c2)c1=O)c1ccc2c(c1)OCO2	6.10

// recorded pIC50 for COc1cc([C@H](CC(=O)O)NC(=O)Nc2cccn(Cc3ccccc3Br)c2=O)cc(OC)c1OC : 7.10

====

Target: α4β1 integrin (Homo sapiens, UniProt P05556+P13612)
Construct: endogenous in cells; host or cells: Ramos cells
Assay: Adhesion of calcein-labeled Ramos cells to CS1 (fibronectin) peptide conjugated ovalbumin
Type: cell-based
Details: Table 7; Ramos cell adhesion to CS1 conjugated ovalbumin; dose required to give 50% inhibition
Text: A procedure in which a 26-amino acid peptide containing the CS1 sequence of fibronectin with an N-terminal Cys ([…]) was coupled to maleimide activated ovalbumin was used to determine the efficacy of the compounds synthesized. […] Following three washes with binding buffer, adherent cells were lysed and quantitated using a fluorometer. […]
# reported IC50; entries follow
Reply with just the number (in nM).

compound	IC50 / nM
Cc1cn(Cc2c(C)cccc2Cl)c(=O)c(NC(=O)NC(CC(=O)O)c2ccc(S(C)(=O)=O)cc2)c1O (centres unmarked)	43

Field IC50 (entry CCOc1cc([C@H](CC(=O)O)NC(=O)Nc2c(O)c3c(n(Cc4ccccc4Cl)c2=O)CCC3)ccc1Cl ) reads 30

Recorded IC50 (compound CCOc1cccc([C@H](CC(=O)O)NC(=O)Nc2c(O)c(C)c(C)n(Cc3c(Cl)cccc3OCC)c2=O)c1 ): 4

Documented IC50 of O=C(O)CC(NC(=O)Nc1c(O)c2c(n(Cc3ccccc3Cl)c1=O)CCC2)c1ccc(-c2ccccc2)cc1 (centres unmarked) : 30

compound Cn1ccc2ccc([C@H](CC(=O)O)NC(=O)Nc3c(O)c4c(n(Cc5ccccc5Cl)c3=O)CCC4)cc21 , IC50 observed: 3

Noted for CCc1ccc([C@H](CC(=O)O)NC(=O)Nc2c(O)c3c(n(Cc4c(C)cccc4Cl)c2=O)CCC3)cc1 : its IC50 reads 15

Record CCCc1ccc([C@H](CC(=O)O)NC(=O)Nc2c(O)c3c(n(Cc4ccccc4Cl)c2=O)CCC3)cc1 . Reported IC50: 17

Per the record, O=C(O)C[C@H](NC(=O)Nc1c(O)c2c(n(Cc3ccccc3Cl)c1=O)CCC2)c1ccc2c(c1)CCO2 has IC50 of 2

====

Biological target: α4β1 integrin (Homo sapiens, UniProt P05556+P13612)
Construct: endogenous in cells; host or cells: Ramos cells
Assay: Adhesion of calcein-labeled Ramos cells to CS1 (fibronectin) peptide conjugated ovalbumin
Format: cell-based
Conditions: Table 7; Ramos cell adhesion to CS1 conjugated ovalbumin; dose required to give 50% inhibition
Quick list: pIC50 per entry.
Keep in mind that pIC50 stands for -log10 of concentration in molar terms.

mol	reported-endpoint	observed-result
O=C(O)C[C@H](NC(=O)Nc1c(O)c2c(n(Cc3ccccc3Cl)c1=O)CCC2)c1cccc(OC2CCC2)c1	pIC50	7.77
O=C(O)C[C@H](NC(=O)Nc1c(O)c2c(n(Cc3ccccc3Cl)c1=O)CCC2)c1cc(C(F)(F)F)cc(C(F)(F)F)c1	pIC50	6.89
COc1ccc([C@H](CC(=O)O)NC(=O)Nc2c(O)c3c(n(Cc4ccccc4Cl)c2=O)CCC3)cc1F	pIC50	8.52

For this compound ( COc1ccc([C@H](CC(=O)O)NC(=O)Nc2c(O)c(C)cn(Cc3ccccc3Cl)c2=O)cc1C ), measured pIC50 is 8.05

Measured pIC50, CCOc1cccc(Cl)c1Cn1ccc(O)c(NC(=O)N[C@@H](CC(=O)O)c2cccc(OC(C)C)c2)c1=O : 8.52

// recorded pIC50 for CCOc1cccc([C@H](CC(=O)O)NC(=O)Nc2c(O)c(C)cn(Cc3c(Cl)cccc3OCC(C)C)c2=O)c1 : 7.85

// pIC50 lookup, compound = O=C(O)C[C@H](NC(=O)Nc1c(O)c2c(n(Cc3ccccc3Cl)c1=O)CCC2)c1ccccc1 , result: 8.10

# compound CC(C)Cc1cccc([C@H](CC(=O)O)NC(=O)Nc2c(O)c3c(n(Cc4ccccc4Cl)c2=O)CCC3)c1 ; its pIC50 = 7.82

====

Target: α4β1 integrin (Homo sapiens, UniProt P05556+P13612)
Construct: endogenous in cells; host or cells: Ramos cells
Assay: Adhesion of calcein-labeled Ramos cells to CS1 (fibronectin) peptide conjugated ovalbumin
Type: cell-based
Conditions: Table 4; Ramos cell adhesion to CS1 conjugated ovalbumin, 30 minutes at 37° C.
Reported IC50 is given for each of the following compounds.
Expressed in µM, but write only the number.

Recorded IC50, per entry:
compound	observed-result
O=C(Nc1cccn(Cc2ccccc2Cl)c1=O)N[C@@H](C(=O)O)c1ccccc1	80
COc1ccc([C@H](CC(=O)O)NC(=O)Nc2cccn(Cc3ccccc3Br)c2=O)cc1C	0.2
O=C(O)C[C@H](NC(=O)Nc1cccc(Oc2ccccc2)c1)c1ccc2c(c1)OCO2	50
O=C(O)CC(NC(=O)Nc1c(O)ccn(Cc2ccccc2Cl)c1=O)c1ccc(Cl)cc1 (stereo not drawn)	0.03
Cc1ccc([C@H](CC(=O)O)NC(=O)Nc2cccn(Cc3ccc(F)cc3F)c2=O)cc1	1.3

GET /values?item= Cc1ccc([C@H](CC(=O)O)NC(=O)Nc2cccn(Cc3ccc(C(F)(F)F)cc3F)c2=O)cc1 &system= α4β1 integrin (Homo sapiens, UniProt P05556+P13612) returns IC50: 3

====

Molecular target: α4β1 integrin (Homo sapiens, UniProt P05556+P13612)
Construct: endogenous in cells; host or cells: Ramos cells
Assay: Adhesion of calcein-labeled Ramos cells to CS1 (fibronectin) peptide conjugated ovalbumin
Type: cell-based
Conditions: Table 7; Ramos cell adhesion to CS1 conjugated ovalbumin; dose required to give 50% inhibition
Listed here are compounds together with their documented IC50.
Respond with the bare value in nM.

mol	subject-of-test	IC50 [nM]
C[C@H](CC(=O)O)NC(=O)Nc1c(O)c2c(n(Cc3ccccc3Cl)c1=O)CCC2	α4β1 integrin (Homo sapiens, UniProt P05556+P13612)	15
Cc1cn(Cc2ccccc2Cl)c(=O)c(NC(=O)N[C@@H](CC(=O)O)c2ccc(OC3CC3)cc2)c1O	α4β1 integrin (Homo sapiens, UniProt P05556+P13612)	6
Cc1ccc([C@@H](NC(=O)Nc2c(O)c(C)cn(Cc3ccccc3Cl)c2=O)[C@H](C)C(=O)O)cc1	α4β1 integrin (Homo sapiens, UniProt P05556+P13612)	1500
CCCc1cn(Cc2c(Cl)cccc2OCC)c(=O)c(NC(=O)N[C@@H](CC(=O)O)c2ccccc2)c1O	α4β1 integrin (Homo sapiens, UniProt P05556+P13612)	23
Cc1cn(Cc2ccccc2Cl)c(=O)c(NC(=O)N[C@@H](CC(=O)O)c2cccc(O)c2)c1O	α4β1 integrin (Homo sapiens, UniProt P05556+P13612)	9
Cc1ccc([C@H](CC(=O)O)NC(=O)Nc2c(O)c(C)cn(Cc3cc(S(=O)(=O)N4CCCC4)ccc3Cl)c2=O)cc1	α4β1 integrin (Homo sapiens, UniProt P05556+P13612)	15

For CCCc1cn(Cc2c(Cl)cccc2OCC)c(=O)c(NC(=O)N[C@@H](CC(=O)O)c2ccc(C)cc2)c1O the compound record lists IC50 as 20
